Here is a set of molecules with reported IC50 for Beta-secretase 1 (Homo sapiens), compiled from the literature.

Recorded IC50, per entry:
molecule	IC50
CCc1cc(C2(c3cccc(-c4cncnc4)c3)N=C(N)N(C)C2=O)cs1 (centres unmarked)	0.01 to 0.1 µM
[2H]C1([2H])OC(N)=NC12c1cc(-c3cc(C#N)cc(OC)c3)ccc1CC2(C)C1CCOCC1 (centres unmarked)	> 5 µM
Cc1ccccc1-c1ccc2nc(N)c(C=Cc3cnn(C4CCCCC4)c3)cc2c1	1 to 5 µM

Query: Please report the recorded IC50 for Cc1ccccc1-c1ccc2nc(N)c(CCc3cc4ccccc4[nH]3)cc2c1 .
Reply: 1 to 5 µM

Query: Now give it for CCC(=O)c1cc(C2(c3cccc(-c4cc(F)cnc4F)c3)N=C(N)N(C)C2=O)cn1CCF (centres unmarked) too.
Reply: 0.01 to 0.1 µM
